Reference source for all entries: ChEMBL document CHEMBL5608261

Assay: Cytotoxicity against human SH-SY5Y cells assessed as reduction in cell viability incubated for 72 hrs by CellTiter-Glo assay
Format: toxicity, cell-based
Conditions: SH-SY5Y cells
readout.type: CC50 at 72 h

Example entries begin here.
> print(dat)
                                   compound  readout.type   result
1  CN1CCC[C@@H]2c3nc4ccc(C(F)(F)F)cc4c(=O)n3CC[C@H]21 (racemic)  CC50 at 72 h  > 20 µM
2  CN1CCC[C@@H]2c3nc4ccc(Cl)cc4c(=O)n3CC[C@H]21 (racemic)  CC50 at 72 h  > 20 µM

Field request: CC50 at 72 h | item: CN1CCC[C@@H]2c3nc4cc(Cl)c(Cl)cc4c(=O)n3CC[C@H]21 (racemic)
> 20 µM
